Biological target: phosphodiesterase isolated from rat brain
Test: Inhibition of phosphodiesterase isolated from rat brain (radioisotopic, 3H-c-AMP)
Conditions: rat brain; read off from curve, 50% decrease of enzyme activity; read-out: I50 on phosphodiesterase
Where a name gives a salt, the structure may show the parent alone.
reported_endpoint: pIC50
One number for each entry, as −log10 of the molar value.

{"compound": "COc1ccc(Cc2nccc3cc(OC)c(OC)cc23)cc1OC [papaverine.HCl, papaverine, reference compound]", "pIC50": 4.15}

What value of pIC50 has been reported for the following compound? CC[C@]12C=CCN3CCc4c(n(c5ccccc45)C(COC(=O)c4cc(OC)c(OC)c(OC)c4)=C1)[C@@H]32
5.00
